Assay: Permeability across apical to basolateral side in human Caco2 cells at 3 uM
Format: ADME, cell-based
Settings: Caco-2, read-out: permeability
quantity.name: Papp A→B at 3 µM (×10⁻⁶ cm/s)
Give bare numbers, in ×10⁻⁶ cm/s.

Query block: Entry `CC1(C)OCCn2c1nc(C(=O)NCc1ccc(F)cc1)c(O)c2=O` : reported Papp A→B at 3 µM = ?
Result block: 33.4

###

Assay: AUC in cynomolgus monkey at 5 mg/kg, po
Assay type: ADME, organism-based, Macaca fascicularis
Settings: in vivo
quantity.name: AUC (µM·h)
Numbers only, in µM·h.

Query block: Entry `CC1(C)OCCn2c1nc(C(=O)NCc1ccc(F)cc1)c(O)c2=O` has what AUC?
Result block: 19.2

###

Test: Clearance in Sprague-Dawley rat at 1 mg/kg, iv after 4 hrs
Type: ADME, organism-based
Settings: in vivo
I'd appreciate it if you could supply clearance values for the items below.
Answers are plain numbers, in mL/min/kg.

O=C(NCc1ccc(F)cc1)c1nc2n(c(=O)c1O)CCCC21CCCC1 | 18
Cc1cc(CNC(=O)c2nc3n(c(=O)c2O)CCOC3(C)C)ccc1F | 11
Cc1cc(CNC(=O)c2nc3n(c(=O)c2O)CCCC32CCCC2)ccc1F | 17
CS(=O)(=O)c1cc(F)ccc1CNC(=O)c1nc2n(c(=O)c1O)CCCC21CCCC1 | 46
CC1(C)OCCn2c1nc(C(=O)NCc1ccc(F)cc1N1CCCCS1(=O)=O)c(O)c2=O | 38

List the reported clearance of each compound below.
1. CN(C)S(=O)(=O)c1c(CNC(=O)c2nc3n(c(=O)c2O)CCOC3(C)C)ccc(F)c1F
2. CNC(=O)c1cc(F)ccc1CNC(=O)c1nc2n(c(=O)c1O)CCOC2(C)C
3. CC1(C)OCCn2c1nc(C(=O)NCc1ccc(F)cc1N1CCOCC1)c(O)c2=O
4. CC1(C)OCCn2c1nc(C(=O)NCc1ccc(F)cc1)c(O)c2=O
5. CC1(C)OCCn2c1nc(C(=O)NCc1ccc(F)cc1S(C)(=O)=O)c(O)c2=O

Result block:
1: 62; 2: 22; 3: 29; 4: 9.6; 5: 6.9

###

Experiment: Oral bioavailability in cynomolgus monkey at 5 mg/kg
Assay type: ADME, organism-based, Macaca fascicularis
Conditions: in vivo
quantity.name: bioavailability (%)
Give bare numbers, in %.

Query block: # bioavailability lookup, item `CC1(C)OCCn2c1nc(C(=O)NCc1ccc(F)cc1)c(O)c2=O`
Result block: 56

###

Test: Tmax in cynomolgus monkey at 5 mg/kg, po
Type: ADME, organism-based, Macaca fascicularis
Conditions: in vivo
quantity.name: Tmax

Query block: Please look up its Tmax: `CC1(C)OCCn2c1nc(C(=O)NCc1ccc(F)cc1)c(O)c2=O`
Result block: 15 min

###

Biological target: Human immunodeficiency virus type 1 integrase (Human immunodeficiency virus 1, UniProt Q7ZJM1)
Sequence (Q7ZJM1 whole entry): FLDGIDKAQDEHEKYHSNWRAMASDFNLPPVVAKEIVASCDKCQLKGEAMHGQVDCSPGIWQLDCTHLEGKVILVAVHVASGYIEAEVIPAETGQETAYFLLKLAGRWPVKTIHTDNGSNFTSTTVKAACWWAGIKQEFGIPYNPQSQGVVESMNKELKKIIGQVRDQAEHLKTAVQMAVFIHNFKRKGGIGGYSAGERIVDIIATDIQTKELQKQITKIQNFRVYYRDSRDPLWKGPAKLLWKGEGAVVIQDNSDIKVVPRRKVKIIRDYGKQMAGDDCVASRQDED
For each entry below, report its IC50 value.
Numbers only, in nM.

Dear colleague, could you send me IC50 for each of the items below? Thanks.
1. CC1(C)OCCn2c1nc(C(=O)NCc1ccc(F)cc1)c(O)c2=O
2. O=C(NCc1ccc(F)cc1)c1nc2n(c(=O)c1O)CCCC21CCCC1
3. CC1(C)OCCn2c1nc(C(=O)NCc1ccc(F)c(Cl)c1)c(O)c2=O

Result block:
1: 3; 2: 3; 3: 3
